The values you see were collected from ChEMBL document CHEMBL3797161.

Test: Solubility of compound in DMSO at 10 to 1000 ng/ml
Format: physicochemical
RESULT TYPE: solubility

>>> observed_value("CCCCCCCCCCCCCC[C@@H](O)[C@@H](O)[C@H](CO[C@H]1O[C@H](CO)[C@H](O)[C@H](O)[C@H]1O)n1cc(COCCCCCCCCOCc2ccccc2)nn1")
"soluble"
>>> observed_value("CCCCCCCCCCCCCC[C@@H](O)[C@@H](O)[C@H](CO[C@H]1O[C@H](CO)[C@H](O)[C@H](O)[C@H]1O)n1cc(COCCCCCCCCCCOCc2ccccc2)nn1")
"soluble"
>>> observed_value("CCCCCCCCCCCCCC[C@@H](O)[C@@H](O)[C@H](CO[C@H]1O[C@H](CO)[C@H](O)[C@H](O)[C@H]1O)n1cc(COCCCCCCOCc2ccccc2)nn1")
"soluble"

---

Organism: Mus musculus
Experiment: Binding affinity to CD1D in Balb/c mouse splenocytes assessed as increase in IL-2 production at 10 to 1000 ng/ml after 48 hrs by sandwich ELISA
Format: cell-based
Activity calls are given as the source filed them. No cut-off for these calls is given here.
Outcomes you can answer with include only these: Y for active, N for inactive

Worked examples follow.
>>> class_assignment("CCCCCCCCCCCCCC[C@@H](O)[C@@H](O)[C@H](CO[C@H]1O[C@H](CO)[C@H](O)[C@H](O)[C@H]1O)n1cc(COCCOCc2ccccc2)nn1")
"N"
>>> class_assignment("CCCCCCCCCCCCCC[C@@H](O)[C@@H](O)[C@H](CO[C@H]1O[C@H](CO)[C@H](O)[C@H](O)[C@H]1O)n1cc(COCCCCCCCCOCc2ccccc2)nn1")
"Y"
>>> class_assignment("CCCCCCCCCCCCCC[C@@H](O)[C@@H](O)[C@H](CO[C@H]1O[C@H](CO)[C@H](O)[C@H](O)[C@H]1O)n1cc(COCCCCCCCCCCCCOCc2ccccc2)nn1")
"Y"

Per the assay record, what outcome was assigned to CCCCCCCCCCCCCC[C@@H](O)[C@@H](O)[C@H](CO[C@H]1O[C@H](CO)[C@H](O)[C@H](O)[C@H]1O)n1cc(COCCCCCCCCCCOCc2ccccc2)nn1 ?
Y

Hi, sorry to bother you, what did the test record for CCCCCCCCCCCCCC[C@@H](O)[C@@H](O)[C@H](CO[C@H]1O[C@H](CO)[C@H](O)[C@H](O)[C@H]1O)n1cc(COCCCCCCCCCCCCOCCOCc2ccccc2)nn1 ?
Y

// return assay outcome for CCCCCCCCCCCCCC[C@@H](O)[C@@H](O)[C@H](CO[C@H]1O[C@H](CO)[C@H](O)[C@H](O)[C@H]1O)n1cc(COCCCCCCCCCCCCOCCCCOCc2ccccc2)nn1
Y
